Tested on: Aspergillus fumigatus
Experiment: In vitro determination of minimum inhibitory concentration (MIC), serial dilution
Assay type: cell-based
Conditions: 20160 min, pH 6
Experimental: The antimycotic activities of the compounds were measured by in vitro determination of the minimum inhibitory concentration (MIC) for yeasts, molds and dermatophytes. 6 dermatophytes, 2 yeasts and 4 molds were used for testing with fungi, as follows: The minimum inhibitory concentration (MIC) was determined in serial dilution tests in test tubes. The volume of the liquid nutrient medium in each test tube was 4.5 ml. […] The MIC was then determined. […]
assayEndpoint: MIC Asp.fu.

Clc1ccc(C(Cn2ccnc2)NCCCSc2ccccc2)c(Cl)c1 (centres unmarked) [Compound 90] | 3,12 μg/ml

Ask: Find the measured MIC Asp.fu. of Clc1ccc(C(Cn2ccnc2)NCCSc2ccc(Br)cc2)c(Cl)c1 (centres unmarked) [Compound 37] and report it.
Reply: 6,25 μg/ml

Ask: Please indicate MIC Asp.fu. recorded for Clc1ccc(C(Cn2ccnc2)NCCCSc2ccc(Br)cc2)c(Cl)c1 (centres unmarked) [Compound 1]
Reply: 1,56 μg/ml

Ask: Report MIC Asp.fu. for Clc1ccc(SCCCNC(Cn2cncn2)c2ccc(Cl)cc2Cl)cc1 (centres unmarked) [Compound 95]
Reply: 12,5 μg/ml

Ask: Please report MIC Asp.fu. for the following molecule: CN(CCCOc1ccc(Br)cc1)C(Cn1cncn1)c1ccc(Cl)cc1Cl (centres unmarked) [Compound 62]
Reply: 1,56 μg/ml

Ask: Give reported MIC Asp.fu. value for Clc1ccc(OCCNC(Cn2cncn2)c2ccc(Cl)cc2Cl)cc1 (centres unmarked) [Compound 14]
Reply: 100 µg/mL

Ask: State, in one line, measured MIC Asp.fu. of Clc1ccc(SCCCNC(Cn2ccnc2)c2cccc3ccccc23)cc1 (centres unmarked) [Compound 139]
Reply: 3,12 μg/ml

Ask: Find the measured MIC Asp.fu. of Clc1ccc(C(Cn2ccnc2)NCCCSc2ccc(Br)cc2)c(Cl)c1 (centres unmarked) [Compound 105] and report it.
Reply: 0,39 μg/ml

###

System: Trichophyton rubrum
# MIC per record follows
Answer format: numeric, mg/L implied, no suffix.

Recorded MIC, per entry:
CN(CCCSCc1ccc(Cl)cc1)C(Cn1ccnc1)c1ccc(Cl)cc1Cl (stereo not drawn) | 6.25
Clc1ccc(C(Cn2ccnc2)NCCSc2ccc(Br)cc2)c(Cl)c1 (stereo not drawn) | 1.56

Ask: Provide Trichophyton rubrum MIC reading for CN(CCCOc1ccc(I)cc1)C(Cn1ccnc1)c1ccc(Cl)cc1Cl (stereo not drawn) .
Reply: 0.78

Ask: Would you please give the reported MIC of Clc1ccc(OCCCCNC(Cn2cncn2)c2ccc(Cl)cc2Cl)cc1 (stereo not drawn) with Trichophyton rubrum?
Reply: 6.25

Ask: Please report MIC with Trichophyton rubrum for item Cc1cc(Cl)ccc1OCCCNC(Cn1cncn1)c1ccc(Cl)cc1Cl (stereo not drawn) .
Reply: 50

Ask: Fill: MIC (Trichophyton rubrum) for this compound Clc1ccc(SCCCNC(Cn2cncn2)c2ccc(Cl)cc2Cl)cc1 (stereo not drawn)
Reply: 1.56

Ask: Enter recorded MIC with Trichophyton rubrum for CN(CCCOc1ccc(Br)cc1)C(Cn1cncn1)c1ccc(Cl)cc1Cl (stereo not drawn) here.
Reply: 3.12

Ask: Under Trichophyton rubrum: report MIC of Clc1ccc(SCCCCCNC(Cn2ccnc2)c2ccc(Cl)cc2Cl)cc1 (stereo not drawn) .
Reply: 3.12

Ask: Output reported MIC of the compound Clc1ccc(SCCNC(Cn2ccnc2)c2ccc(Cl)cc2Cl)cc1 (stereo not drawn) on Trichophyton rubrum.
Reply: 0.78

###

Quick list: MIC Asp.fu. per entry.
Tested on: Aspergillus fumigatus
Experiment: In vitro determination of minimum inhibitory concentration (MIC), serial dilution
Format: cell-based
Conditions: 20160 min, pH 6

Illustrative cases are given below, each with its answer.
Clc1ccc(SCCNC(Cn2ccnc2)c2ccc(Cl)cc2Cl)cc1 (centres unmarked) [Compound 34] | 6,25 μg/ml
Cc1ccc(OCCCNC(Cn2cncn2)c2ccc(Cl)cc2Cl)cc1 (centres unmarked) [Compound 52] | 6,25 μg/ml
Clc1ccc(SCCNC(Cn2cncn2)c2ccc(Cl)cc2Cl)cc1 (centres unmarked) [Compound 33] | 25,0 μg/ml
Clc1ccc(C(Cn2cncn2)NCCCSc2ccc(Br)cc2)c(Cl)c1 (centres unmarked) [Compound 104] | 100 µg/mL
Clc1ccc(SCCCNC(Cn2cncn2)c2ccc(Cl)cc2)cc1 (centres unmarked) [Compound 99] | 100 µg/mL

Ask: Identify measured MIC Asp.fu. corresponding to Cc1ccc(SCCCNC(Cn2ccnc2)c2ccc(Cl)cc2Cl)cc1 (centres unmarked) [Compound 92]
Reply: 0,78 μg/ml

Ask: Tell me MIC Asp.fu. reported for CN(CCCOc1ccc(Cl)cc1)C(Cn1ccnc1)c1ccc(Cl)cc1Cl (centres unmarked) [Compound 60]
Reply: 6,25 μg/ml

Ask: Respond only with MIC Asp.fu. recorded for Clc1ccc(OCCCCNC(Cn2cncn2)c2ccc(Cl)cc2Cl)cc1 (centres unmarked) [Compound 126]
Reply: 25,0 μg/ml

###

For reference, MIC measured on Trichophyton verrucosum:

Clc1ccc(SCCCNC(Cn2cncn2)c2ccc(Cl)cc2)cc1 (stereo not drawn) | 3.12 µg/mL
Clc1ccc(COC(Cn2ccnc2)c2ccc(Cl)cc2Cl)c(Cl)c1 (stereo not drawn) [A, reference compound] | 6.25 µg/mL

Next item in the queue.
Ask: Give MIC for Clc1ccc(SCCCNC(Cn2ccnc2)c2ccc(Cl)cc2Cl)cc1 (stereo not drawn)
Reply: 0.39 µg/mL
